- Tested on: Wolbachia pipientis
- experiment: Anti-Wolbachia Cell-Based Screen
- Assay type: functional
- Parameters: scale not given: in the data most compounds retested in dose-response had high values
- runParameters: 5 µM
About 13,000 (27%) of roughly 48,000 compounds showed an effect of 50% or more. This is one part of the list.
readout: Percent Effect (%)
Number in %, nothing else.

- compound: "CCc1cc(CN(C)C(=O)CN2CC3(CCNCC3)OC2=O)on1"
  readout: "Percent Effect"
  valueMeasured: 3.162
- compound: "CCn1ccnc1CN1CCN(C(C)C(=O)N2CCCC2)CC1 (configuration not stated)"
  readout: "Percent Effect"
  valueMeasured: 111.2
- compound: "CCn1ccnc1CN1CCCN(C(=O)C2(C#N)CCCCC2)CC1"
  readout: "Percent Effect"
  valueMeasured: -5.352
- compound: "Cc1ncsc1CCN(C)C(=O)CN1CCCCC1=O"
  readout: "Percent Effect"
  valueMeasured: 17.08
- compound: "CCn1ccnc1CN1CCN(C(C)C(=O)NC2CCCCC2)CC1 (configuration not stated)"
  readout: "Percent Effect"
  valueMeasured: -10.14
- compound: "Cc1nc(CCN(C)C(=O)CN2CCCCCC2)no1"
  readout: "Percent Effect"
  valueMeasured: 5.465
- compound: "CCn1ccnc1CN1CCCN(C(=O)c2cncnc2C)CC1"
  readout: "Percent Effect"
  valueMeasured: -6.711
- compound: "CC(C)c1cc(CN(C)C(=O)CN2CCCCC2=O)no1"
  readout: "Percent Effect"
  valueMeasured: 112.2

Please indicate Percent Effect recorded for "CN(Cc1cc(C2CC2)on1)C(=O)CN1C(=O)OC(C)(C)C1=O"
-4.246

Please indicate Percent Effect recorded for Cc1cc(CN(C)C(=O)C2CCCN(C(N)=O)C2)no1 (configuration not stated)
12.67

Please indicate Percent Effect recorded for "CCn1ccnc1CN1CCCN(C(=O)c2cccn2C)CC1"
1.946

Please indicate Percent Effect recorded for "Cc1cc(CN(C)C(=O)CN2CC3(CCNCC3)OC2=O)no1"
-10.43

====

- Test system: Wolbachia pipientis
- experiment: Anti-Wolbachia Cell-Based Screen
- Assay type: functional
- Set-up: scale not given: in the data most compounds retested in dose-response had high values
- runParameters: 5 µM
Hit rate of the full screen: of about 48,000 compounds, about 13,000 (27%) showed an effect of 50% or more. Some of the results follow.
readout: Percent Effect
Answer with the value and then the unit.

Please review the entries below; each comes with its answer.
- compound: "CC(=O)Nc1cccc2c1ccn2CC(=O)Nc1ncc[nH]1"
  Percent Effect: "101.7%"
- compound: "COc1cccc2c1ccn2CC(=O)Nc1nc[nH]n1"
  Percent Effect: "91.25%"
- compound: "CC(=O)N1CC2(CCN(S(=O)(=O)N(C)C)CC2)C2(CCNC2=O)C1 (configuration not stated)"
  Percent Effect: "-32.61%"
- compound: "CC1=C[C@@H](CN2CCC(O)CC2)[C@H](C(C)C)C[C@H]1Cc1nnc(C)o1"
  Percent Effect: "4.973%"

Please indicate Percent Effect recorded for "CCS(=O)(=O)c1ccccc1N1CCC(NC(=O)NC2CCCC2)CC1"
-4.776%

Please indicate Percent Effect recorded for "Cc1cc(CNC(=O)CN2CCN(C(=O)OC(C)(C)C)CC2)ccc1F"
-110.5%

Please indicate Percent Effect recorded for Cn1cc(C(C)(O)CNc2ccc(C(F)(F)F)cn2)cn1 (configuration not stated)
-6.245%

Please indicate Percent Effect recorded for "O=C(NCCNc1ncccn1)NCCc1c(F)cccc1F"
4.613%

Please indicate Percent Effect recorded for "Cc1ccn(-c2ccccc2NCc2ncc[nH]2)n1"
-9.69%

Please indicate Percent Effect recorded for "Clc1ccc(C2(NCc3noc(C4CC4)n3)CCCC2)cc1"
6.408%

Please indicate Percent Effect recorded for CCn1ccnc1CN1CCN(CC(=O)NC(C)(C#N)C2CC2)CC1 (configuration not stated)
-16.24%

Please indicate Percent Effect recorded for "COCC(=O)NCCn1ccc2c(OC)cccc21"
-0.7831%
